B1: FUNDC2 (parent)
chain: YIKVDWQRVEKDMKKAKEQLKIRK

# Variants of: B1
# EXPERIMENTAL_DETAILS: protein stability index of a GFP-peptide fusion (GPS, HEK-293T) (PSI 1-6); higher = more stable;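 also: lentivirally expressed fusions sorted by FACS into six bins by GFP to DsRed ratio, PSI derived from sequencing read proportions per bin multiplied by bin number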
# SETUP_CONDITIONS: c terminus: a fixed tail appended
REPORTED_PROPERTY: protein stability index
API note: the answer field is a bare number with no unit suffix.

Documented protein stability index of `E18W` : 1.16

protein stability index reported for this variant `K21E` : 2.28
